# test summary: 5-FU pharmacokinetics in pigs with topical eniluracil (Example 6)
# Assay type: in vivo
# condition parameters: pig, plasma, iv, 6 mg/kg, 5-FU 6 mg/kg bolus; Both Doses of eniluracil ointment; Day 14; read-out: 5-FU Half-Life, Mean (SD)
endpoint label: half-life (min)

O=c1[nH]cc(F)c(=O)[nH]1 ... 9.77

###

# test summary: 5-FU pharmacokinetics in pigs with topical eniluracil (Example 6)
# Assay type: in vivo
# condition parameters: pig, plasma, iv, 6 mg/kg, 5-FU 6 mg/kg bolus; Both Doses of eniluracil ointment; Day 0; read-out: 5-FU Half-Life, Mean (SD)
endpoint label: half-life (min)

O=c1[nH]cc(F)c(=O)[nH]1 ... 10.1

###

# test summary: 5-FU pharmacokinetics in pigs with topical eniluracil (Example 6)
# Format: in vivo
# condition parameters: pig, plasma, iv, 6 mg/kg, 5-FU 6 mg/kg bolus; eniluracil ointment Dose 0.005%; Day 0; read-out: 5-FU Half-Life, Mean (SD)
# Method: This study was carried out to determine the plasma pharmacokinetics of eniluracil (EU) after topical administration and to evaluate the effect of topical eniluracil application on 5-FU pharmacokinetics, peripheral blood mononuclear cell (PBMC) dihydropyrimidine dehydrogenase (DPD) function, and levels of DPD activity in the skin in vivo. […]
endpoint label: half-life (min)

O=c1[nH]cc(F)c(=O)[nH]1 [5-FU, 5-Fluorouracil] ... 6.98

###

# test summary: 5-FU pharmacokinetics in pigs with topical eniluracil (Example 6)
# Type: in vivo
# condition parameters: pig, plasma, iv, 6 mg/kg, 5-FU 6 mg/kg bolus; eniluracil ointment Dose 0.01%; Day 14; read-out: 5-FU Half-Life, Mean (SD)
endpoint label: half-life (min)

O=c1[nH]cc(F)c(=O)[nH]1 ... 12.8

###

# test summary: 5-FU pharmacokinetics in pigs with topical eniluracil (Example 6)
# Format: in vivo
# condition parameters: pig, plasma, topical or ocular, 6 mg/kg, 5-FU 6 mg/kg bolus; Both Doses of eniluracil ointment; Day −3 (no topical eniluracil); read-out: 5-FU Half-Life, Mean (SD)
endpoint label: half-life (min)

O=c1[nH]cc(F)c(=O)[nH]1 ... 5.11

###

# test summary: 5-FU pharmacokinetics in pigs with topical eniluracil (Example 6)
# Type: in vivo
# condition parameters: pig, plasma, iv, 6 mg/kg, 5-FU 6 mg/kg bolus; Controls (no ointment); Day 0; read-out: 5-FU Half-Life, Mean (SD)
endpoint label: half-life (min)

O=c1[nH]cc(F)c(=O)[nH]1 ... 7.56

###

# test summary: 5-FU pharmacokinetics in pigs with topical eniluracil (Example 6)
# Type: in vivo
# condition parameters: pig, plasma, topical or ocular, 6 mg/kg, 5-FU 6 mg/kg bolus; eniluracil ointment Dose 0.01% group; Day −3 (no topical eniluracil); read-out: 5-FU Half-Life, Mean (SD)
endpoint label: half-life (min)

O=c1[nH]cc(F)c(=O)[nH]1 ... 4.78
